Assay method text: physchem
Test conditions: citric acid solution, pH 2.2
Readout label: remaining at 2 min

Request: Please report remaining at 2 min for the following molecule: CC[C@H]1OC(=O)[C@H](C)[C@@H](O[C@H]2C[C@@](C)(OC)[C@@H](O)[C@H](C)O2)[C@H](C)[C@@H](O[C@@H]2O[C@H](C)C[C@H](N(C)C)[C@H]2O)[C@](C)(O)C[C@@H](C)C(=O)[C@H](C)[C@@H](O)[C@]1(C)O [Erythromycin A, reference compound]
Result: < 10%

---

Assay method text: physchem
Test conditions: citric acid solution, pH 2.2
Readout label: remaining at 4 h

Request: Please report remaining at 4 h for the following compound: CC[C@H]1OC(=O)[C@H](C)[C@@H](O[C@H]2C[C@@](C)(OC)[C@@H](O)[C@H](C)O2)[C@H](C)[C@@H](O[C@@H]2O[C@H](C)C[C@H](N(C)C)[C@H]2O)[C@@H](C)C[C@@H](C)C(=O)[C@H](C)[C@@H](O)[C@]1(C)O [6-Deoxyerythromycin A]
Result: > 50%
